PARAMETER MEASURED: melting point

Task: I'd like to know its melting point. The molecule in question is Cn1c(=O)c(-c2c(Cl)cccc2Cl)cc2cnc(Nc3ccc(Cl)cc3)nc21
Result: 255 to 256 °C

Task: Also need Fc1cccc(Cl)c1COc1cccnc1NC(=S)Nc1ccc(Cl)cc1 , thanks.
Result: 162 to 164 °C

Task: Also need CCn1cc(-c2nc(C(N)=O)c(N)nc2-c2ccccc2)ccc1=O , thanks.
Result: > 250 °C

Others:
Task: I'd like to know its melting point. The molecule in question is O=[N+]([O-])C=C(NCCCOc1cccc(CN2CCCCC2)c1)NCC(O)c1ccc(F)cc1 (stereo not given)
Result: 135 to 136 °C

Task: Also need Cc1ccc(S(=O)(=O)OC2=CC3COC(O3)C2=O)cc1 (stereo not given) , thanks.
Result: 81 to 86 °C
